# key: entry, value: times more potent than AZA toward hCA I
- system.name: hCA I (Homo sapiens)
- Sequence (P00915 whole entry): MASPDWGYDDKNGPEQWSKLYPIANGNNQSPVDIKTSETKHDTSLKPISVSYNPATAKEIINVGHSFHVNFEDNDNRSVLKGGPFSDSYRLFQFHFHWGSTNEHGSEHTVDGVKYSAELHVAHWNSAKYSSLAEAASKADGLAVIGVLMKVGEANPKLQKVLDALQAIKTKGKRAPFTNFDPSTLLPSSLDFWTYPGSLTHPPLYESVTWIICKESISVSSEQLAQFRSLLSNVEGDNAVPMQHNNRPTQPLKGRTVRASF
- experimental.details: biochemical
- Format: biochemical
- settings: based on Ki values
- Procedure: CA isoenzymes (CA I and CA II) were purified using a Sepharose-4B-L tyrosine-sulphanilamide affinity chromatography. Activities of CA isoenzymes were determined according to method by Verpoorte et al.. […] The experimental procedure was given in detail in our previous papers. SSpectrophotometry-based Ellman’s method was used to test the compounds’ AChE inhibitory effects. Acetylthiocholine iodide (AChI) was used as a substrate of the reaction. […]
Provide only the numeric value, understood in ×.

COc1ccc(/C=C(\NC(=O)c2ccccc2)C(=O)Nc2ccc(S(=O)(=O)NC(C)=O)cc2)cc1 1.7

State, in one line, measured times more potent than AZA toward hCA I of COc1ccc(/C=C(\NC(=O)c2ccccc2)C(=O)Nc2ccc(S(N)(=O)=O)cc2)cc1
4.8

State, in one line, measured times more potent than AZA toward hCA I of COc1ccc(/C=C(\NC(=O)c2ccccc2)C(=O)Nc2ccc(S(=O)(=O)Nc3nccc(C)n3)cc2)cc1
2.7

State, in one line, measured times more potent than AZA toward hCA I of COc1ccc(/C=C(\NC(=O)c2ccccc2)C(=O)Nc2ccc(S(=O)(=O)Nc3ncccn3)cc2)cc1
3.8

State, in one line, measured times more potent than AZA toward hCA I of COc1ccc(/C=C(\NC(=O)c2ccccc2)C(=O)Nc2ccc(S(=O)(=O)Nc3nc(C)cc(C)n3)cc2)cc1
7.5

State, in one line, measured times more potent than AZA toward hCA I of COc1ccc(/C=C(\NC(=O)c2ccccc2)C(=O)Nc2ccc(S(=O)(=O)Nc3nccs3)cc2)cc1
3.3

* * *

Please consider the recorded pIC50 for hCA II (Homo sapiens) in what follows.
Notebook: values listed as pIC50 are -log10 of the concentration (mol/L).

Would you please look over these solved cases?
COc1ccc(/C=C(\NC(=O)c2ccccc2)C(=O)Nc2ccc(S(=O)(=O)Nc3nccc(C)n3)cc2)cc1 7.61
COc1ccc(/C=C(\NC(=O)c2ccccc2)C(=O)Nc2ccc(S(=O)(=O)NC(C)=O)cc2)cc1 7.69
COc1ccc(/C=C(\NC(=O)c2ccccc2)C(=O)Nc2ccc(S(=O)(=O)Nc3nc(C)cc(C)n3)cc2)cc1 7.57

Now consider a different compound.
State, in one line, measured pIC50 of COc1ccc(/C=C(\NC(=O)c2ccccc2)C(=O)Nc2ccc(S(=O)(=O)Nc3nccs3)cc2)cc1
7.68

Data provenance: paper PMC7763114
